Origin of measurements: ChEMBL document CHEMBL4308841

For each record, write down the corresponding growth at 0.01 µM.
# System: SF-539
# method-notes: Growth inhibition of human SF539 cells assessed as cell growth at 0.01 uM incubated for 48 hrs by sulforhodamine B assay relative to control
# Assay type: functional
# setup-conditions: SF-539, 48 h, read-out: Activity

COc1cc(Cl)cc(-c2nn(-c3cccc(NC(=O)Nc4cccc(C(F)(F)F)c4)c3)cc2-c2ccncc2)c1 | 100%
COc1cc(Cl)cc(-c2nn(-c3cccc(NC(=O)Nc4ccc(Cl)c(C(F)(F)F)c4)c3)cc2-c2ccncc2)c1 | 96%

Inquiry: Report growth at 0.01 µM for O=C(Nc1cccc(-n2cc(-c3ccncc3)c(-c3cc(O)cc(Cl)c3)n2)c1)c1ccc(N2CCOCC2)c(C(F)(F)F)c1 tested on SF-539.
Reply text: 94%

* * *

# Test system: OVCAR-3
# method-notes: Growth inhibition of human OVCAR3 cells assessed as cell growth at 0.01 uM incubated for 48 hrs by sulforhodamine B assay relative to control
# Format: functional
# setup-conditions: OVCAR-3, 48 h, read-out: Activity
For each record, write down the corresponding growth at 0.01 µM.
Numbers only, in %.

The following compounds have reported results that may help.
COc1cc(Cl)cc(-c2nn(-c3cccc(NC(=O)c4ccc(N5CCOCC5)c(C(F)(F)F)c4)c3)cc2-c2ccncc2)c1 | 100
COc1cc(Cl)cc(-c2nn(-c3cccc(NC(=O)c4cccc(C(F)(F)F)c4)c3)cc2-c2ccncc2)c1 | 105
O=C(Nc1cccc(-n2cc(-c3ccncc3)c(-c3cc(O)cc(Cl)c3)n2)c1)c1cc(C(F)(F)F)cc(C(F)(F)F)c1 | 102

Now consider the entry below.
Inquiry: If you can, please state the reported growth at 0.01 µM value of O=C(Nc1cccc(-n2cc(-c3ccncc3)c(-c3cc(O)cc(Cl)c3)n2)c1)c1ccc(N2CCOCC2)c(C(F)(F)F)c1 .
Reply text: 111

* * *

# System: T47D
# method-notes: Growth inhibition of human T47D cells incubated for 48 hrs by sulforhodamine B assay
# Assay type: functional, cell-based
# setup-conditions: read-out: pTGI (converted)
quantity-name: TGI

COc1cc(Cl)cc(-c2nn(-c3cccc(NC(=O)c4cccc(C(F)(F)F)c4)c3)cc2-c2ccncc2)c1 | > 100 µM
COc1cc(Cl)cc(-c2nn(-c3cccc(NC(=O)c4ccc(N5CCOCC5)c(C(F)(F)F)c4)c3)cc2-c2ccncc2)c1 | > 100 µM

Inquiry: If you can, please state the reported TGI value of O=C(Nc1cccc(-n2cc(-c3ccncc3)c(-c3cc(O)cc(Cl)c3)n2)c1)c1ccc(N2CCOCC2)c(C(F)(F)F)c1 .
Reply text: > 100 µM

* * *

For each record, write down the corresponding CC50.
# System: DU-145
# method-notes: Growth inhibition of human DU145 cells incubated for 48 hrs by sulforhodamine B assay
# Format: functional, cell-based
# setup-conditions: DU-145, 48 h, read-out: pLC50 (the source's name) (converted)

The following compounds have reported results that may help.
O=C(Nc1cccc(-n2cc(-c3ccncc3)c(-c3cc(O)cc(Cl)c3)n2)c1)c1cc(C(F)(F)F)cc(C(F)(F)F)c1 | > 100 µM
COc1cc(Cl)cc(-c2nn(-c3cccc(NC(=O)Nc4cccc(C(F)(F)F)c4)c3)cc2-c2ccncc2)c1 | > 100 µM

Now consider the entry below.
Inquiry: If you can, please state the reported CC50 value of COc1cc(Cl)cc(-c2nn(-c3cccc(NC(=O)c4cccc(C(F)(F)F)c4)c3)cc2-c2ccncc2)c1 .
Reply text: > 100 µM
